Molecular target: Mu-type opioid receptor (Rattus norvegicus)
Sequence (P33535 whole entry): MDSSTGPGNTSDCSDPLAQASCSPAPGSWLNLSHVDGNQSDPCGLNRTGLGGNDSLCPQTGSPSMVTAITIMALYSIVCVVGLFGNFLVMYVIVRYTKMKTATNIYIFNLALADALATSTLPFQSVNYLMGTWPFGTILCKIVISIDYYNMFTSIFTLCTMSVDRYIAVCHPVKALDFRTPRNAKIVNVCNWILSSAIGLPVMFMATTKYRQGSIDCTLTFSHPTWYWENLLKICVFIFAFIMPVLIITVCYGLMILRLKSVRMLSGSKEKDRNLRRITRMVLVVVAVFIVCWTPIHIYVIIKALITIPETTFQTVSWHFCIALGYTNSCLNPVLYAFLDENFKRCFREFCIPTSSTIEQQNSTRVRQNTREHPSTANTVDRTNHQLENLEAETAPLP
Assay: Agonist activity at rat MOR expressed in rat C6 cells assessed as stimulation of [35S]GTPgammaS binding at 10 uM after 1 hr by liquid scintillation counting analysis relative to DAMGO
Assay type: functional, cell-based
METRIC: Emax (%)
Your answer should be a plain number; it is taken to be in %.

Request: For Cc1cc(O)cc(C)c1C[C@H](N)C(=O)N[C@@H]1CCNc2ccc(Cc3ccc4ccccc4c3)cc21 , what is its reported Emax?
Response: 96

Request: Also Cc1cc(O)cc(C)c1C[C@H](N)C(=O)N[C@@H]1CCNc2ccc(CCc3ccccc3)cc21 , if possible.
Response: 45

Request: Also Cc1cc(O)cc(C)c1C[C@H](N)C(=O)N[C@@H]1CCNc2ccc(Cc3cccc4ccccc34)cc21 , if possible.
Response: 93

Request: Also Cc1cc(O)cc(C)c1C[C@H](N)C(=O)N[C@@H]1CCNc2ccc(CC3Cc4ccccc4C3)cc21 , if possible.
Response: 86

###

Biological target: Mu-type opioid receptor (Rattus norvegicus)
Assay: Agonist activity at rat MOR expressed in rat C6 cells assessed as stimulation of [35S]GTPgammaS binding after 1 hr by liquid scintillation counting analysis
METRIC: pEC50
Entry type: numeric. Quantity: pEC50, the -log10 of concentration in molar units.

Request: For Cc1cc(O)cc(C)c1C[C@H](N)C(=O)N[C@@H]1CCNc2ccc(CC3Cc4ccccc4C3)cc21 , what is its reported pEC50?
Response: 9.62

###

Molecular target: Delta-type opioid receptor (Rattus norvegicus, UniProt P33533)
Sequence (P33533 whole entry): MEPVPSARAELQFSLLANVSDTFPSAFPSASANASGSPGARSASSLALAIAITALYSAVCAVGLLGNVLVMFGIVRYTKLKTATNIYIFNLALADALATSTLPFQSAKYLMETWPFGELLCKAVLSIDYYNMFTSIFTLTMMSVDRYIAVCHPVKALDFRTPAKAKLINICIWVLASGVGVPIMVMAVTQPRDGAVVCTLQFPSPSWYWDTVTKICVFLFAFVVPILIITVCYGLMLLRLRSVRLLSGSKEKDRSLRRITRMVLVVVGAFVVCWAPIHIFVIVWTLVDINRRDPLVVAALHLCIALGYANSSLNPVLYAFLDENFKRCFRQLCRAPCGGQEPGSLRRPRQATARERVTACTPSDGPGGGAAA
Assay: Displacement of [3H]diprenorphine from rat DOR expressed in rat C6 cells after 1 hr by liquid scintillation counting analysis
METRIC: pKi
Entry type: numeric. Quantity: pKi, the -log10 of concentration in molar units.

Request: For Cc1cc(O)cc(C)c1C[C@H](N)C(=O)N[C@@H]1CCNc2ccc(CC3Cc4ccccc4C3)cc21 , what is its reported pKi?
Response: 8.39

Request: Also Cc1cc(O)cc(C)c1C[C@H](N)C(=O)N[C@@H]1CCNc2ccc(Cc3ccc4ccccc4c3)cc21 , if possible.
Response: 8.00

###

Target: Kappa-type opioid receptor (Homo sapiens)
Sequence (P41145 whole entry): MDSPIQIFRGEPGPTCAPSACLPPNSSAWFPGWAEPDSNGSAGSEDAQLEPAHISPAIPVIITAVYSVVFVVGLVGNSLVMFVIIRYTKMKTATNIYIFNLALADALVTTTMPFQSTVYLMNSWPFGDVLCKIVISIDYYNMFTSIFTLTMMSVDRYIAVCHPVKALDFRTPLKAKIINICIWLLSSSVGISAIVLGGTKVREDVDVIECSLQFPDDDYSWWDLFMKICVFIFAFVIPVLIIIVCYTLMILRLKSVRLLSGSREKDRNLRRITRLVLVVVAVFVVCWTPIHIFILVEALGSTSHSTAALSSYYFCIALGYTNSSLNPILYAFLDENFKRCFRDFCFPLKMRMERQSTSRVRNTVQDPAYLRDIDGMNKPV
Assay type: functional, cell-based, CHO
Conditions: read-out: EC50
METRIC: EC50 (nM)
Your answer should be a plain number; it is taken to be in nM.

Request: For Cc1cc(O)cc(C)c1C[C@H](N)C(=O)N[C@@H]1CCNc2ccc(CC3Cc4ccccc4C3)cc21 , what is its reported EC50?
Response: 68

###

Can you tell me pKi for the items I'm about to list?
Target: Kappa-type opioid receptor (Homo sapiens)
Entry type: numeric. Quantity: pKi, the -log10 of concentration in molar units.

Request: For Cc1cc(O)cc(C)c1C[C@H](N)C(=O)N[C@@H]1CCNc2ccc(Cc3ccc4ccccc4c3)cc21 , what is its reported pKi?
Response: 7.27

Request: Also Cc1cc(O)cc(C)c1C[C@H](N)C(=O)N[C@@H]1CCNc2ccc(CC3Cc4ccccc4C3)cc21 , if possible.
Response: 8.92
